Cited source for all entries: patent US20040053950A1

Target Or System: UniProt:P90584
Sequence (P90584 1-324): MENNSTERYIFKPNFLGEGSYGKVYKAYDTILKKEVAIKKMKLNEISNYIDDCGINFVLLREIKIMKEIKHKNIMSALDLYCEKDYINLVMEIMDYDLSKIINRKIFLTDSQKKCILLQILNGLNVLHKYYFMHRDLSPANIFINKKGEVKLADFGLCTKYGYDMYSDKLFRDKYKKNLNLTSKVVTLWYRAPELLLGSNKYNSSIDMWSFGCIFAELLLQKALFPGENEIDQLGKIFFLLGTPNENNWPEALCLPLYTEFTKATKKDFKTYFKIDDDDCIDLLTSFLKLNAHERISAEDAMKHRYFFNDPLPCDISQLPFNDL
Assay Protocol: Kinase assay, recombinant plasmodial cyclin-dependent kinase
Assay type: biochemical
Property Name: IC50

[Q] Please indicate IC50 recorded for CCOC1CCCN[C@@H]1CC(=O)Cn1cnc2cc(Br)c(Cl)cc2c1=O (stereo partly shown) [WR221232]
[A] ~113 µM

----------
System: Neuronal cells (NG108)
Assay Protocol: In vitro drug toxicity assay, neuronal cells
Assay type: cell-based
Settings: NG-108; Table 2, NG108
Property Name: IC50 (µg/mL)
Supply the numeric figure in µg/mL, leaving out any unit text.

Some entries whose results are on file:
Compound	Unit Annotation	Numeric Readout
CCOC1CCCN[C@@H]1CC(=O)Cn1cnc2cc(Br)c(Cl)cc2c1=O (some centres unmarked) [WR221232]	µg/mL	5.99
O=C(C[C@@H]1CCCCN1)Cn1cnc2ccccc2c1=O [WR059421]	µg/mL	5.38
O=C(C[C@H]1NCCCC1O)Cn1cnc2c(Cl)c(Cl)c(Cl)cc2c1=O (some centres unmarked) [WR222048]	µg/mL	1.1
O=C(C[C@H]1NCCCC1O)Cn1cnc2cccc(Cl)c2c1=O (some centres unmarked) [WR139672]	µg/mL	1.31
C=CCOC(=O)N1CCCC(OCC)[C@H]1CC(=O)Cn1cnc2ccccc2c1=O (some centres unmarked) [WR088442]	µg/mL	21.5

[Q] Fill in IC50 for C=CCOC(=O)N1CCCC(OC)[C@H]1CC(=O)Cn1cnc2cc3c(cc2c1=O)OCO3 (some centres unmarked) [WR089904] tested with Neuronal cells (NG108).
[A] 63

[Q] Fill in IC50 for COC1CCCN[C@@H]1CC(=O)Cn1cnc2ccc3c(c2c1=O)OCO3 (some centres unmarked) [WR140085] tested with Neuronal cells (NG108).
[A] 10.8

[Q] Fill in IC50 for COC1CCCN[C@@H]1CC(=O)Cn1cnc2cc3c(cc2c1=O)OCO3 (some centres unmarked) [WR090212] tested with Neuronal cells (NG108).
[A] 26

----------
System: P. falciparum chloroquine-resistant W2-strain
Assay Protocol: In vitro drug susceptibility assay ([3H]-hypoxanthine incorporation), W2 strain
Assay type: cell-based
Settings: Plasmodium falciparum; Table 4, W2; read-out: IC50 P. falciparum (W2)
Property Name: IC50 (µg/mL)
Supply the numeric figure in µg/mL, leaving out any unit text.

Molecule	Property Name	Numeric Readout
O=C(CC1NCCCC1O)Cn1cnc2cc(Br)c(Cl)cc2c1=O (stereo not drawn)	IC50	0.00015
O=C(C[C@@H]1CCCCN1)Cn1cnc2ccccc2c1=O	IC50	0.0237

For the next question, use this molecule.
[Q] Please indicate IC50 recorded for CCOC1CCCN[C@@H]1CC(=O)Cn1cnc2cc(Br)c(Cl)cc2c1=O (stereo partly drawn)
[A] 0.0115
